Target: MMP-13 (Homo sapiens)
Construct: made in house; host or cells: baculovirus / insect cells
Test: In vitro MMP inhibition, Ki determination (fluorogenic substrate II)
Assay type: biochemical
Details: value not in parenthesis; read-out: MMP-13 Ki
Value type: Ki (nM)

P = O=C(NO)C1(S(=O)(=O)N2CCN(c3ccc(OCCCC(F)(F)F)cc3)CC2)CCN(c2cnccn2)CC1
Q = CCCCOc1ccc(N2CCN(S(=O)(=O)C3(C(=O)NO)CCN(c4cccnc4)CC3)CC2)cc1
R = CCCCOc1ccc(N2CCN(S(=O)(=O)C3(C(=O)NO)CCN(c4ccc(Cl)c(Cl)c4)CC3)CC2)cc1
S = COc1ccc(N2CCN(S(=O)(=O)C3(C(=O)NO)CCOCC3)CC2)nc1 [Example 109]
T = O=C(NO)C1(S(=O)(=O)N2CCN(c3ccc4c(c3)OC(F)(F)C(F)(F)O4)CC2)CCOCC1
*Q* Sort the listed molecules above so the one with the largest Ki comes first and the smallest comes last. Arrange the labels as the request states and list them.
*A* S, T, R, Q, P

1 = CCCCOc1ccc(N2CCN(S(=O)(=O)C3(C(=O)NO)CCN(c4ccc(OC)nc4)CC3)CC2)cc1
2 = O=C(NO)C1(S(=O)(=O)N2CCN(c3ccc(OC(F)(F)F)cc3)CC2)CCN(C2CC2)CC1
*Q* Lower Ki: 1 or 2 ? Write down the label of the entry you select.
*A* 2
(2: 0.35 nM, 1: 0.505 nM)

a = COCCN1CCC(C(=O)NO)(S(=O)(=O)N2CCN(c3ccc(CC(C)C)cc3)CC2)CC1
b = CCCCOc1ccc(N2CCN(S(=O)(=O)C3(C(=O)NO)CCN4CCCC4C3)CC2)cc1F (stereo not drawn)
*Q* Among a and b , which shows a numerically higher Ki result? Write down the label of the entry you select.
*A* b
(b: 7.06 nM, a: 1.93 nM)

----------
Target: MMP-1 (Homo sapiens)
Construct: made in house; host or cells: MMP-1-transfected HT-1080 cells (spent media)
Sequence (P03956 100-469): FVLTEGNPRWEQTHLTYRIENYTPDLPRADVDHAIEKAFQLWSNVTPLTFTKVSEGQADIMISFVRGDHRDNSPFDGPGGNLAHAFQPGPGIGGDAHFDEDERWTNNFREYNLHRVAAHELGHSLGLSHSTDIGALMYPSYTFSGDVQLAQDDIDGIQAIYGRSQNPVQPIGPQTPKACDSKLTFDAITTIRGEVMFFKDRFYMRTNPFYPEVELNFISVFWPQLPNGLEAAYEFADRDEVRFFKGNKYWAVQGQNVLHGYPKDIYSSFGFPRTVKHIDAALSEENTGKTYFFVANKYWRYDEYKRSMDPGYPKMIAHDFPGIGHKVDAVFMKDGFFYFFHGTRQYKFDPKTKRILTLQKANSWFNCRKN
Assay: MMP-1 inhibition (in vitro Ki)
Format: biochemical
Conditions: Table 9; read-out: MMP-1 Ki (IC-50)
Value type: Ki (µM)

Sample answers from the record:
COC(=O)CCCC1CCN(S(=O)(=O)C2(C(=O)NO)CCOCC2)CC1 | 2.71
CC(C)CN(C)C(=O)CCCCC1CCN(S(=O)(=O)C2(C(=O)NO)CCOCC2)CC1 | 2.58
COCC#Cc1ccc(C2CCN(S(=O)(=O)C3(C(=O)NO)CCOCC3)CC2)nc1 | 4.18

A = O=C(NO)C1(S(=O)(=O)N2CCC(c3ccc(C#CCc4ccccc4)cn3)CC2)CCOCC1
B = O=C(NO)C1(S(=O)(=O)N2CCC(c3ccc(COCC4CC4)cn3)CC2)CCOCC1
*Q* Lower Ki: A or B ? Write down the label of the entry you select.
*A* A

A = CC(F)(F)COc1ccc(C2CCN(S(=O)(=O)C3(C(=O)NO)CCOCC3)CC2)nc1
B = COC(=O)CCCCC1CCN(S(=O)(=O)C2(C(=O)NO)CCOCC2)CC1
*Q* Among A and B , which shows a numerically higher Ki result? Write down the label of the entry you select.
*A* A

P = O=C(/C=C/C=C/C1CCN(S(=O)(=O)C2(C(=O)NO)CCOCC2)CC1)N1C[C@H]2CCCC[C@H]2C1
Q = O=C(NO)C1(S(=O)(=O)N2CCC(c3ccc(CCC(F)F)cn3)CC2)CCOCC1
*Q* Lower Ki: P or Q ? Write down the label of the entry you select.
*A* Q
(Q: 2.97 µM, P: 4.44 µM)

----------
Molecular target: MMP-9 (Homo sapiens)
Construct: made in house; host or cells: MMP-9-transfected HT1080 cells (spent media)
Sequence (P14780 107-707 limits assumed): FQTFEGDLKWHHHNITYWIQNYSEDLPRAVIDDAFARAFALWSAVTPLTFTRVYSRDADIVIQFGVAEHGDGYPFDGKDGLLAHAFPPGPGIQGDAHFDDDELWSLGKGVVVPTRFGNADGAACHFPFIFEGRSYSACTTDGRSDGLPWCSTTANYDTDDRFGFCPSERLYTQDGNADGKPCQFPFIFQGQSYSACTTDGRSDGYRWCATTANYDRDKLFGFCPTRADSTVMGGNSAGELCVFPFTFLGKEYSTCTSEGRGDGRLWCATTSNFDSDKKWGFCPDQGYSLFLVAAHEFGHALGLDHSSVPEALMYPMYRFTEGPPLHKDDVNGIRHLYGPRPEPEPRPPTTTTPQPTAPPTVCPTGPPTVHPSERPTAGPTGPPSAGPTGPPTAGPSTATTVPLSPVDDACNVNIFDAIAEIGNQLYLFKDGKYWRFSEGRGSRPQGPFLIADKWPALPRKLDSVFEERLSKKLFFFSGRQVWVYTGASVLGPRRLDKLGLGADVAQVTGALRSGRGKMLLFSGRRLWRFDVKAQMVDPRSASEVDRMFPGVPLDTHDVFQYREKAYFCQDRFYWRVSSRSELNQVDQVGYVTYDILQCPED
Assay: In vitro MMP inhibition, IC50 determination (fluorogenic substrate I)
Assay type: biochemical
Details: values in parenthesis; 4 μM substrate I; room temperature
Structures can show the parent of a compound that is named as a salt.
Value type: IC50 (nM)

CCCCCc1ccc(C2CCN(S(=O)(=O)C3(C(=O)NO)CCN(CCOC)CC3)CC2)cc1 [Example 15, Hydrochloride] | 0.3
O=C(NO)C1(S(=O)(=O)N2CCN(c3ccc(OCC4CC4)c(F)c3)CC2)CCN(C2CC2)CC1 [Example 10, dihydrochloride] | 0.3

A = CCCCOc1ccc(N2CCN(S(=O)(=O)C3(C(=O)NO)CCN(CCOC)CC3)CC2)cc1F [Example 11, Dihydrochloride]
B = CCCCCc1ccc(N2CCN(S(=O)(=O)C3(C(=O)NO)CCN(CCOC)CC3)CC2)cc1 [Example 6, Dihydrochloride]
*Q* Lower IC50: A or B ? Write down the label of the entry you select.
*A* B
(B: 0.2 nM, A: 2.3 nM)

----------
Target: MMP-2 (Homo sapiens)
Construct: made in house; host or cells: MMP-2-transfected p2AHT2 cells
Sequence (P08253 110-660): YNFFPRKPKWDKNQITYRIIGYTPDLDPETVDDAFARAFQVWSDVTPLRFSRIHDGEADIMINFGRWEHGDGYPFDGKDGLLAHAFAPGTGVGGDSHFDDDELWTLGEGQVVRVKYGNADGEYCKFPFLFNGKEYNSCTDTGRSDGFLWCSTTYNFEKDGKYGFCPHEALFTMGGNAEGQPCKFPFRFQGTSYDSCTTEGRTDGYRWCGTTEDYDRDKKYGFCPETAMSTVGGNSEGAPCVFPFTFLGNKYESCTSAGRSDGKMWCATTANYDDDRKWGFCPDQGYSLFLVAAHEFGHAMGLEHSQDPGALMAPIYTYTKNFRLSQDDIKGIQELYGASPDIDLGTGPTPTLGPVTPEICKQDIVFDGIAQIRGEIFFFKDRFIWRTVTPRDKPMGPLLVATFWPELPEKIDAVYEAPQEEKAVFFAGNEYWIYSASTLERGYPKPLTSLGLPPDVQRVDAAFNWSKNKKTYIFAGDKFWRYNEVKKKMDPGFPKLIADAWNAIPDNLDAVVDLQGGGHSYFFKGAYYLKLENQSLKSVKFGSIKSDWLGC
Assay: In vitro MMP inhibition, Ki determination (fluorogenic substrate II)
Assay type: biochemical
Settings: value not in parenthesis; read-out: MMP-2 Ki
Description: Several hydroxamic acids and salts thereof were analyzed in in vitro assays to determine their ability to inhibit the MMP cleavage of peptide substrates. […] and IC50 constants were calculated from the assayed hydroxamic acid-MMP interactions. […] The assays from which the Ki determinations were made were performed as follows. […] In the absence of MMP inhibitory activity, substrate II was cleaved at the Gly-Leu bond resulting in an increase of relative fluorescence. […]
Value type: Ki (nM)

Sample answers from the record:
COCCN1CCC(C(=O)NO)(S(=O)(=O)N2CCN(c3ccc(Br)cc3)CC2)CC1 | 0.521
O=C(NO)C1(S(=O)(=O)N2CCN(c3ccc(OCCCC(F)(F)F)cc3)CC2)CCN(c2cnccn2)CC1 | 0.69

A = CCCCOc1ccc(N2CCN(S(=O)(=O)C3(C(=O)NO)CCN(C(=O)NC(C)(C)C)CC3)CC2)cc1
B = CCCc1nnc(N2CCN(S(=O)(=O)C3(C(=O)NO)CCOCC3)CC2)s1
*Q* Among A and B , which shows a numerically higher Ki result? Write down the label of the entry you select.
*A* B
(B: 214 nM, A: 0.536 nM)

----------
Biological target: MMP-2 (Homo sapiens, UniProt P08253)
Construct: made in house; host or cells: MMP-2-transfected p2AHT2 cells
Experiment: In vitro MMP inhibition, Ki determination (fluorogenic substrate II)
Assay type: biochemical
Settings: value not in parenthesis; read-out: MMP-2 Ki
Value type: Ki (nM)

Sample answers from the record:
O=C1c2ccccc2C(=O)N1CCCCc1ccc(N2CCN(S(=O)(=O)C3(C(=O)NO)CCOCC3)CC2)nc1 [Example 132] | 1.2
CCCCc1cnc(N2CCN(S(=O)(=O)C3(C(=O)NO)CCOCC3)CC2)nc1 [Example 105] | 2.94
CCCCCCCCCc1cnc(N2CCN(S(=O)(=O)C3(C(=O)NO)CCOCC3)CC2)nc1 [Example 111] | 49.6

A = O=C(NO)C1(S(=O)(=O)N2CCN(c3ccc(OC(F)(F)C(F)F)cc3)CC2)CCSCC1 [Example 62]
B = O=C(NO)C1(S(=O)(=O)N2CCN(c3ccc(OCCCC(F)(F)F)cc3)CC2)CCN(C2CC2)CC1 [Example 153]
C = CCCCc1nnc(N2CCN(S(=O)(=O)C3(C(=O)NO)CCOCC3)CC2)s1 [Example 214]
D = CCCc1cnc(N2CCN(S(=O)(=O)C3(C(=O)NO)CCN(CCOC)CC3)CC2)nc1 [Example 178]
*Q* // sort entries: Ki, high to low Arrange the labels as the request states and list them.
*A* C, D, B, A
(C: 102 nM, D: 7.88 nM, B: 0.502 nM, A: 0.22 nM)

1 = CCCCOc1ccc(N2CCN(S(=O)(=O)C3(C(=O)NO)CCN(c4nc5ccccc5s4)CC3)CC2)cc1 [Example 93]
2 = CCC(C)Cc1ccc(N2CCN(S(=O)(=O)C3(C(=O)NO)CCN(CCOC)CC3)CC2)cc1 (stereo not shown) [Example 190]
*Q* Among 1 and 2 , which shows a numerically higher Ki result? Write down the label of the entry you select.
*A* 1
(1: 6.92 nM, 2: 1.49 nM)

a = CCCCOc1ccc(N2CCN(S(=O)(=O)C3(C(=O)NO)CCN(c4nc5ccccc5o4)CC3)CC2)cc1 [Example 150]
b = CCCCCc1cnc(N2CCN(S(=O)(=O)C3(C(=O)NO)CCOCC3)CC2)cn1 [Example 219]
*Q* Lower Ki: a or b ? Write down the label of the entry you select.
*A* b

a = CCCCOc1ccc(N2CCN(S(=O)(=O)C3(C(=O)NO)CCN(c4ccsc4)CC3)CC2)cc1 [Example 223]
b = CCCCOc1ccc(N2CCN(S(=O)(=O)C3(C(=O)NO)CCN(c4ccccn4)CC3)CC2)cc1 [Example 149]
c = CC(C)CCOc1ccc(N2CCN(S(=O)(=O)C3(C(=O)NO)CCN(C4CC4)CC3)CC2)cc1 [Example 128]
*Q* // ascending sort on recorded Ki Arrange the labels as the request states and list them.
*A* c, b, a

I = CCN1CCC(C(=O)NO)(S(=O)(=O)N2CCN(c3ccc(OCCCC(F)(F)F)cc3)CC2)CC1 [Example 78]
II = COCCN1CCC(C(=O)NO)(S(=O)(=O)N2CCN(c3ccc(OCC(C)C)c(F)c3)CC2)CC1 [Example 166]
*Q* Among I and II , which shows a numerically higher Ki result? Write down the label of the entry you select.
*A* I
(I: 2.56 nM, II: 0.72 nM)
